Numbers sourced from patent EP0679394B1.

# test_method_notes: Acute (single administration) toxicity test in mice
# Format: in vivo, ICR mice
# assay_setup: in vivo, ip, intraperitoneal, Mouse M, medium 5% gum arabic
measured_attribute: LD50

Please look up its LD50: "CC(C)=CCC/C(C)=C/CC/C(C)=C/CC/C(C)=C/CC1=C(C)C(=O)c2ccccc2C1=O"
> 5000 mg/kg

----------
# test_method_notes: Acute (single administration) toxicity test in mice
# Type: in vivo, ICR mice
# assay_setup: in vivo, sc, subcutaneous, Mouse M, medium 5% gum arabic
measured_attribute: LD50

Give the measured LD50 of "CC(C)=CCC/C(C)=C/CC/C(C)=C/CC/C(C)=C/CC1=C(C)C(=O)c2ccccc2C1=O" .
> 5000 mg/kg
